- Tested on: A-427;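 further: growth inhibition of human A-427 cells, read out by a cell viability assay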
- method description: cells
- Type: functional, cell-based
- reported conditions: Homo sapiens
- Description: SANGER: Inhibition of human A427 cell growth in a cell viability assay.
readout kind: IC50

>>> endpoint_result("CCCCCCCCCCCC1=C(O)C(=O)C=C(O)C1=O")
"> 32 µM"
>>> endpoint_result("NC(=O)c1ccc(N(C(N)=O)c2c(F)cccc2F)nc1-c1ccc(F)cc1F")
"> 2 µM"
>>> endpoint_result("O=S(=O)(O)c1ccc2cc(/N=N/c3cc(S(=O)(=O)O)c4cccnc4c3O)ccc2c1")
"> 16 µM"

Now consider a different compound.
q: What value of IC50 has been recorded for this entry: CN(C)CCOc1ccc(-c2nc(-c3ccncc3)c(-c3ccc4c(c3)CC/C4=N\O)[nH]2)cc1
a: > 5 µM
